System: Human cervical carcinoma cells (HeLa)
EXPERIMENT DESCRIPTION: MTS cytotoxicity assay, HeLa cells
Format: cell-based
RUN CONDITIONS: 3 days, average of three experiments
MEASURE NAME: CC50
Numeric answer plus unit only.

For orientation, consider the following solved cases.
Cc1ccc(NC(=O)CC(c2ccccc2)c2ccccc2)cc1C	40.3 µM
O=CC(=O)c1ccc2c(c1)Cc1cc(C(=O)C=O)ccc1-2	52.7 µM
CCOC(=O)C1=C(C)OC(N)=C(C#N)C1c1ccc(OCc2ccc(C)cc2)c([N+](=O)[O-])c1 (stereo not shown)	78.6 µM
CCCOc1ccc(-c2cc(C(=O)N/N=C/c3ccc(OCC)cc3)[nH]n2)cc1	12.3 µM
CCCc1ccc(OCc2ccc(C(=O)N/N=C/c3ccc(Cl)cc3O)o2)cc1	46.7 µM

For each listed entry, give its CC50.
1. FC(F)(F)c1ccc(N/N=C/c2cc(Br)cs2)cc1
2. Cc1cc(O)c(Sc2c(O)cc(C)cc2C(C)(C)c2ccccc2)c(C(C)(C)c2ccccc2)c1

// result
["7.6 µM", "70.6 µM"]

###

ASSAY SYSTEM: VA387 binding to the B antigen
EXPERIMENT DESCRIPTION: Saliva-based blocking EIA: VA387 VLP binding to B antigen
RUN CONDITIONS: VA387 VLP binding to B antigen saliva; read-out: EC50 rVA387 B
Procedure: A saliva based blocking assay offers several advantages for anti-Norovirus agent screening. First, the assay is a solid phase blocking assay which is simple and suitable for large scale screening. […] Baculovirus-expressed recombinant capsid proteins of four Norovirus strains representing four distinct receptor binding patterns were studied: Norovirus strains Norwalk, VA387, VA207, and MOH. […] The purity of VLPs used in this study was over 90% which was determined by SDS-PAGE analysis. […]
Rule for this label: satisfied means EC50 is less than 10 µM; not satisfied means EC50 is at least 10 µM.

Past entries and their recorded results:
Oc1ccc(C=Nc2nccs2)c(O)c1	not satisfied
CCCc1ccc(OCc2ccc(C(=O)N/N=C/c3ccc(Cl)cc3O)o2)cc1	not satisfied
FC(F)(F)c1ccc(N/N=C/c2cc(Br)cs2)cc1	not satisfied
CC(C)OC(=O)CC(=O)CSc1nc(-c2ccc(F)cc2)cc(-c2cccs2)c1C#N	satisfied
Cc1ccc(NC(=O)CC(c2ccccc2)c2ccccc2)cc1C	not satisfied

// query A record lists CCOC(=O)C1=C(C)OC(N)=C(C#N)C1c1ccc(OCc2ccc(C)cc2)c([N+](=O)[O-])c1 (stereo not drawn) . Is its EC50 below 10 µM?
// result not satisfied

// query O=C(/C=C/c1ccc(-c2cc(Cl)cc(Cl)c2)o1)c1cccs1 ?
// result not satisfied

// query CCC[n+]1cc(-c2ccccc2)nc(N2CCOCC2)n1.[I-] ?
// result satisfied

// query C=C(SCCNC(=O)NCCCCCCNC(=O)NCCSc1ccccc1O)C(C)=CC ?
// result not satisfied

###

ASSAY SYSTEM: VA387 binding to the H antigen
EXPERIMENT DESCRIPTION: Saliva-based blocking EIA: VA387 VLP binding to H antigen
RUN CONDITIONS: VA387 VLP binding to H antigen saliva; read-out: EC50 rVA387 H
Assign pEC50 to each entry below.
One number for each entry, as −log10 of the molar value.

CCCCc1ccc(NC(=O)c2ccc(C)cc2)cc1 [Compound 12]	4.55

For each listed entry, give its pEC50.
1. O=C(C(=O)c1ccc(C(=O)c2ccc(C(=O)C(=O)c3ccc(Sc4ccccc4)cc3)cc2)cc1)c1ccc(Sc2ccccc2)cc1 [Compound 11]
2. Oc1ccc(C=Nc2nccs2)c(O)c1 [Compound 7]
3. Cc1cc(O)c(Sc2c(O)cc(C)cc2C(C)(C)c2ccccc2)c(C(C)(C)c2ccccc2)c1 [Compound 13]
4. CCCc1ccc(OCc2ccc(C(=O)N/N=C/c3ccc(Cl)cc3O)o2)cc1 [Compound 5]
5. C=C(SCCNC(=O)NCCCCCCNC(=O)NCCSc1ccccc1O)C(C)=CC [Compound 4]

// result
[4.58, 5.12, 4.32, 5.14, 4.85]

###

ASSAY SYSTEM: VA387 VLPs binding to the A antigen
EXPERIMENT DESCRIPTION: Saliva-based blocking EIA: VA387 VLP binding to type A saliva
RUN CONDITIONS: read-out: EC50 rVA387 A
Experimental: A saliva based blocking assay offers several advantages for anti-Norovirus agent screening. First, the assay is a solid phase blocking assay which is simple and suitable for large scale screening. […] Baculovirus-expressed recombinant capsid proteins of four Norovirus strains representing four distinct receptor binding patterns were studied: Norovirus strains Norwalk, VA387, VA207, and MOH. […] The purity of VLPs used in this study was over 90% which was determined by SDS-PAGE analysis. […]
Assign pEC50 to each entry below.
Numbers only, as −log10 of the molar value.

For orientation, consider the following solved cases.
Cc1ccc(NC(=O)CC(c2ccccc2)c2ccccc2)cc1C [Compound 9]	4.93
CCCOc1ccc(-c2cc(C(=O)N/N=C/c3ccc(OCC)cc3)[nH]n2)cc1 [Compound 14]	4.86
CC(C)OC(=O)CC(=O)CSc1nc(-c2ccc(F)cc2)cc(-c2cccs2)c1C#N [Compound 10]	4.93

For each listed entry, give its pEC50.
1. CCC[n+]1cc(-c2ccccc2)nc(N2CCOCC2)n1.[I-] [Compound 1]
2. C=C(SCCNC(=O)NCCCCCCNC(=O)NCCSc1ccccc1O)C(C)=CC [Compound 4]

// result
5.66
5.09

###

ASSAY SYSTEM: VA387 binding to the B antigen
EXPERIMENT DESCRIPTION: Saliva-based blocking EIA: VA387 VLP binding to B antigen
RUN CONDITIONS: VA387 VLP binding to B antigen saliva; read-out: EC50 rVA387 B
Method: A saliva based blocking assay offers several advantages for anti-Norovirus agent screening. First, the assay is a solid phase blocking assay which is simple and suitable for large scale screening. […] Baculovirus-expressed recombinant capsid proteins of four Norovirus strains representing four distinct receptor binding patterns were studied: Norovirus strains Norwalk, VA387, VA207, and MOH. […] The purity of VLPs used in this study was over 90% which was determined by SDS-PAGE analysis. […]
MEASURE NAME: EC50 (µM)
One number for each entry, in µM.

CCCCc1ccc(NC(=O)c2ccc(C)cc2)cc1	32.5
Cc1cc(O)c(Sc2c(O)cc(C)cc2C(C)(C)c2ccccc2)c(C(C)(C)c2ccccc2)c1	49.5
O=C(C(=O)c1ccc(C(=O)c2ccc(C(=O)C(=O)c3ccc(Sc4ccccc4)cc3)cc2)cc1)c1ccc(Sc2ccccc2)cc1	35.3

// query Please give the measured EC50 for this molecule: O=CC(=O)c1ccc2c(c1)Cc1cc(C(=O)C=O)ccc1-2
// result 44.6

###

ASSAY SYSTEM: VA387 binding to the H antigen
EXPERIMENT DESCRIPTION: Saliva-based blocking EIA: VA387 VLP binding to H antigen
RUN CONDITIONS: VA387 VLP binding to H antigen saliva; read-out: EC50 rVA387 H
Assign EC50 to each entry below.

CCCOc1ccc(-c2cc(C(=O)N/N=C/c3ccc(OCC)cc3)[nH]n2)cc1	> 100 µM
O=C(/C=C/c1ccc(-c2cc(Cl)cc(Cl)c2)o1)c1cccs1	> 100 µM

// query Please give the measured EC50 for this molecule: FC(F)(F)c1ccc(N/N=C/c2cc(Br)cs2)cc1
// result > 100 µM
